molecular target: PRMT5 (Homo sapiens); construct: purchased Viva (custom protein); experiment: PRMT5 biochemical IC50 assay with SAM as cofactor; conditions: PRMT5, SAM as cofactor; read-out: SAM IC50
# IC50 per record follows

COMPOUND: CCc1cc(NC(=O)C(=O)N2C[C@H](C)CC[C@H]2c2ccc(C)nc2)cnc1N (single isomer, unassigned)
IC50: > 500 nM
--
COMPOUND: CCc1cc(NC(=O)C(=O)N2C[C@@H](C)CC[C@@H]2c2ccc3sc(C4CCOC4)nc3c2)cnc1N (some centres unmarked)
IC50: 50 to 500 nM
--
COMPOUND: Cc1cc(NC(=O)C(=O)N2C[C@H](C)CC[C@H]2c2cc3cn[nH]c3s2)cnc1N (single isomer, unassigned) [Compound 1120]
IC50: > 500 nM
--
COMPOUND: Cc1cc(C)cc([C@@H]2CC[C@@H](C)CN2C(=O)C(=O)Nc2cncc(C(N)=O)c2)c1 (racemic)
IC50: 50 to 500 nM
--
COMPOUND: Cc1ncc(NC(=O)C(=O)N2C[C@H](C)CC[C@H]2c2ccc(F)cc2)cc1Cl (racemic)
IC50: 50 to 500 nM
--
COMPOUND: C[C@@H]1CC[C@@H](c2ccc(F)c(F)c2)N(C(=O)C(=O)Nc2cncc(C(N)=O)c2)C1 (racemic) [Compound 263]
IC50: 50 to 500 nM
--
COMPOUND: C[C@@H]1CC[C@@H](c2cccc(C(F)(F)F)c2)N(C(=O)C(=O)Nc2cncc(C(N)=O)c2)C1 (single isomer, unassigned) [Compound 510]
IC50: > 500 nM
--
COMPOUND: C[C@H]1CC[C@H](c2ccc3[nH]c(=O)ccc3c2)N(C(=O)C(=O)Nc2cncc(C(N)=O)c2)C1 (single isomer, unassigned)
IC50: 50 to 500 nM
--
COMPOUND: Cc1cc(NC(=O)C(=O)N2C[C@H](C)CC[C@H]2c2cccc(S(C)(=O)=O)c2)cnc1N (racemic) [Compound 667]
IC50: 50 to 500 nM
--
COMPOUND: Cc1ccc([C@H]2CC[C@H](C)CN2C(=O)C(=O)Nc2cnc(N)c(C)c2)cn1 (single isomer, unassigned)
IC50: > 500 nM
--
COMPOUND: Cc1nc2cc([C@H]3CC[C@H](C)CN3C(=O)C(=O)Nc3cnc(N)c(C)c3)ccc2s1 (single isomer, unassigned)
IC50: 50 to 500 nM
--
COMPOUND: Cc1cc(NC(=O)C(=O)N2C[C@H](C)CC[C@H]2c2ccc3c(c2)CCC(=O)N3)cnc1C(F)F (racemic)
IC50: 50 to 500 nM
--
COMPOUND: CC(=O)N[C@H]1C[C@H]([C@H]2CC[C@H](C)CN2C(=O)C(=O)Nc2cnc(N)c(C)c2)C1 (single isomer, unassigned)
IC50: > 500 nM
--
COMPOUND: C[C@H]1CC[C@H](c2cc(F)cc(Cl)c2)N(C(=O)C(=O)Nc2cncc(C(N)=O)c2)C1 (single isomer, unassigned)
IC50: 50 to 500 nM
--
COMPOUND: Cc1cncc(NC(=O)C(=O)N2C[C@@H](C)CC[C@@H]2c2cccs2)c1 (single isomer, unassigned) [Compound 76]
IC50: > 500 nM
--
COMPOUND: CCc1cc(NC(=O)C(=O)N2C[C@@H](C)CC[C@@H]2c2ccc3sc(C4CCN(C)C4)nc3c2)cnc1N (some centres unmarked)
IC50: < 50 nM
--
COMPOUND: [H][C@@]1([C@]2([H])C[C@@]3(C[C@H](O)C3)C2)CC[C@@H](C)CN1C(=O)C(=O)Nc1cnc(N)c(C)c1 (single isomer, unassigned) [Compound 767]
IC50: 50 to 500 nM
--
COMPOUND: NC(=O)c1cncc(NC(=O)C(=O)N2CCCC3(CCSCC3)C2)c1
IC50: > 500 nM
--
COMPOUND: Cc1cc(NC(=O)C(=O)N2C[C@@H](C)CC[C@@H]2c2cc(F)cc(F)c2)cnc1N (single isomer, unassigned)
IC50: 50 to 500 nM
--
COMPOUND: CCc1cc(NC(=O)C(=O)N2C[C@@H](C)CC[C@@H]2c2ccc3sc(C4CCN(C)CC4C)nc3c2)cnc1N (some centres unmarked)
IC50: < 50 nM
--
COMPOUND: C[C@@H]1CCN(C(=O)C(=O)Nc2cncc(C(N)=O)c2)[C@H](c2ccccc2)C1 (racemic)
IC50: 50 to 500 nM
--
COMPOUND: Cc1cc(NC(=O)C(=O)N2C[C@@H](C)CC[C@@H]2c2ccc3sc(-c4cn(C)cn4)nc3c2)cnc1N
IC50: 50 to 500 nM
--
COMPOUND: NC(=O)c1cncc(NC(=O)C(=O)N2CCC3(CCCCC3)CC2)c1
IC50: 50 to 500 nM
--
COMPOUND: Cc1cc(NC(=O)C(=O)N2CC[C@H](C#N)C[C@@H]2c2ccccc2)cnc1N (single isomer, unassigned)
IC50: > 500 nM
--
COMPOUND: Cc1ncc([C@@H]2CC[C@@H](C)CN2C(=O)C(=O)Nc2cnc(N)c(C)c2)cn1 (racemic)
IC50: 50 to 500 nM
--
COMPOUND: Cc1cc(NC(=O)C(=O)N2C[C@H](C)CC[C@H]2c2ccn(-c3ccn[nH]3)n2)cnc1N (racemic)
IC50: > 500 nM

----------
target: PRMT5 (Homo sapiens, UniProt O14744); construct: purchased Viva (custom protein); assay: PRMT5 biochemical IC50 assay with SAM as cofactor; conditions: PRMT5, SAM as cofactor; read-out: SAM IC50
Sequence (O14744 whole entry): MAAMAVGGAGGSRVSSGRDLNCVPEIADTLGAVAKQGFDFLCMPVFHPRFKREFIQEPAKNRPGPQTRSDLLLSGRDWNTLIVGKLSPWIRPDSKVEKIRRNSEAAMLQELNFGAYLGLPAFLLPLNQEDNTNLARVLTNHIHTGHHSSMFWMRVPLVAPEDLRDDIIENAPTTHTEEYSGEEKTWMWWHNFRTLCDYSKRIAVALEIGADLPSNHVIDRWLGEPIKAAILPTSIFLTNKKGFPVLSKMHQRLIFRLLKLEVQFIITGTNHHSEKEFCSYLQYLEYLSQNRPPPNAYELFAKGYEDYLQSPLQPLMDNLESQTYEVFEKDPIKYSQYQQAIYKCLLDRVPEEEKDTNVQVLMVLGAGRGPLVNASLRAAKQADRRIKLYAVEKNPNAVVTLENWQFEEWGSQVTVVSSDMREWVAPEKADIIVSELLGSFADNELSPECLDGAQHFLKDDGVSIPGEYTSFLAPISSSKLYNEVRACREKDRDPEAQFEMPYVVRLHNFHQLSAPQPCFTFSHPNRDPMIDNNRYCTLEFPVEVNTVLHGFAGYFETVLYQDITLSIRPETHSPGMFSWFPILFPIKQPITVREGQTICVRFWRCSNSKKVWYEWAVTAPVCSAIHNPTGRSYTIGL
Sequence (Q9BQA1 whole entry partner): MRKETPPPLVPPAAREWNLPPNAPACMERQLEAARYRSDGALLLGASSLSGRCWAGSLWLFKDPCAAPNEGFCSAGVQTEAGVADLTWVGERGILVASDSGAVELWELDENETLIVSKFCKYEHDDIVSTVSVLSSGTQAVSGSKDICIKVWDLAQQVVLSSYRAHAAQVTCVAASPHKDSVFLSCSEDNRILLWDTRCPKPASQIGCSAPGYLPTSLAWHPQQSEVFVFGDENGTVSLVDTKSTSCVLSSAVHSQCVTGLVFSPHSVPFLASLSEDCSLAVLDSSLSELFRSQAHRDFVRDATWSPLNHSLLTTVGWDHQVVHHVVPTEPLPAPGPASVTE
# IC50 per record follows

COMPOUND: C[C@H]1CC[C@H](c2ccc3[nH]ncc3c2)N(C(=O)C(=O)Nc2cnc(N)c(C3CC3)c2)C1 (single isomer, unassigned) [Compound 1251]
IC50: < 50 nM
--
COMPOUND: Cc1cc(NC(=O)C(=O)N2C[C@@H](C)CC[C@@H]2c2ccc3sc(-c4cnn(C)c4)nc3c2)cnc1N (racemic) [Compound 1104]
IC50: 50 to 500 nM
--
COMPOUND: CCc1cc(NC(=O)C(=O)N2C[C@@H](C)CC[C@@H]2c2ccc3sc([C@@H]4CCN(C)C4)nc3c2)cnc1N (single isomer, unassigned) [Compound 1308]
IC50: 50 to 500 nM
--
COMPOUND: COc1ncc(NC(=O)C(=O)N2C[C@@H](C)CC[C@@H]2c2ccccc2)cc1C(N)=O (single isomer, unassigned) [Compound 291]
IC50: > 500 nM
--
COMPOUND: Cc1cc(NC(=O)C(=O)N2CC(C)(C)CCC2c2ccccc2)cnc1N (racemic) [Compound 56]
IC50: 50 to 500 nM
--
COMPOUND: Cc1cncc(NC(=O)C(=O)N2C[C@H](C)CC[C@H]2c2cccc(F)c2)c1 (racemic) [Compound 70]
IC50: > 500 nM
--
COMPOUND: C[C@@H]1C[C@@H](C)[C@@H](c2ccccc2)N(C(=O)C(=O)Nc2cncc(C(N)=O)c2)C1 (single isomer, unassigned) [Compound 286]
IC50: > 500 nM
--
COMPOUND: Cc1cc(NC(=O)C(=O)N2C[C@H](C)CC[C@H]2c2ccc(S(C)(=O)=O)cc2)cnc1N (racemic) [Compound 643]
IC50: 50 to 500 nM
--
COMPOUND: Cc1cncc(NC(=O)C(=O)N2C[C@H](C)CC[C@H]2c2ccc3ccccc3c2)c1 (racemic) [Compound 83]
IC50: > 500 nM
--
COMPOUND: CCc1cc(NC(=O)C(=O)N2C[C@H](C)C(F)(F)C[C@H]2c2ccc(C)nc2)cnc1N (single isomer, unassigned) [Compound 935]
IC50: > 500 nM
--
COMPOUND: Cc1cc(NC(=O)C(=O)N2C[C@H](C)C(F)(F)C[C@H]2c2cccc3[nH]ncc23)cnc1N (single isomer, unassigned) [Compound 1041]
IC50: 50 to 500 nM
--
COMPOUND: COc1ncc(NC(=O)C(=O)N2C[C@H](C)CC[C@H]2c2ccc(C(N)=O)s2)cc1C(N)=O (single isomer, unassigned) [Compound 844]
IC50: > 500 nM
--
COMPOUND: Cc1cc(NC(=O)C(=O)N2C[C@@H](C)[C@H](CC(C)C)C[C@@H]2c2ccc3scnc3c2)cnc1N (single isomer, unassigned) [Compound 1284]
IC50: > 500 nM
--
COMPOUND: Cc1cc(NC(=O)C(=O)N2C[C@H](C)CC[C@H]2c2cccc3scnc23)cnc1N (single isomer, unassigned) [Compound 960]
IC50: 50 to 500 nM
--
COMPOUND: Cc1cc(NC(=O)C(=O)N2C[C@H](C)CC[C@H]2[C@H]2CC[C@H](C(C)(C)C)CC2)cnc1N (single isomer, unassigned) [Compound 260]
IC50: 50 to 500 nM
--
COMPOUND: C[C@@H]1CC[C@@H](c2ccc3c(c2)CCCO3)N(C(=O)C(=O)Nc2cncc(C(N)=O)c2)C1 (racemic) [Compound 341]
IC50: 50 to 500 nM
--
COMPOUND: Cc1cc(NC(=O)C(=O)N2C[C@@H](C)CC[C@@H]2c2ccc(F)c(Cl)c2)cnc1N (single isomer, unassigned) [Compound 606]
IC50: > 500 nM
--
COMPOUND: CNc1ccc([C@@H]2CC[C@@H](C)CN2C(=O)C(=O)Nc2cnc(OC)c(C(N)=O)c2)cn1 (single isomer, unassigned) [Compound 448]
IC50: > 500 nM
--
COMPOUND: CC(=O)Nc1ccc([C@@H]2CC[C@@H](C)CN2C(=O)C(=O)Nc2cncc(C(N)=O)c2)s1 (single isomer, unassigned) [Compound 704]
IC50: > 500 nM
--
COMPOUND: Cc1c(NC(=O)C(=O)N2[C@@H](C)CCC[C@H]2c2ccccc2)cnc(N)c1C (single isomer, unassigned) [Compound 425]
IC50: 50 to 500 nM
--
COMPOUND: C[C@H]1CC[C@H](c2ccc3sc(CCN(C)C)nc3c2)N(C(=O)C(=O)Nc2cnc(N)c(C3CC3)c2)C1 (single isomer, unassigned) [Compound 1331]
IC50: > 500 nM
--
COMPOUND: C[C@H]1CC[C@H](c2cc(Cl)cc(C(F)(F)F)c2)N(C(=O)C(=O)Nc2cncc(C(N)=O)c2)C1 (single isomer, unassigned) [Compound 646]
IC50: < 50 nM
--
COMPOUND: COc1ncc(NC(=O)C(=O)N2C[C@@H](C)CC[C@@H]2c2ccc(-c3cncs3)cc2)cc1C(N)=O (single isomer, unassigned) [Compound 842]
IC50: > 500 nM
--
COMPOUND: COc1ncc(NC(=O)C(=O)N2C[C@@H](C)CC[C@@H]2c2ccc(NS(C)(=O)=O)nc2)cc1C(N)=O (single isomer, unassigned) [Compound 999]
IC50: > 500 nM
